System: SK-MEL-2 melanoma
Test: NCI tumour cell line growth inhibition, 48 h
// TGI lookup, one value per entry

COMPOUND	TEST_VALUE
Nc1nc(N)c2ncn(-c3ccccc3)c2n1	> 100 µM
CCOC(=O)C1(C#N)C(C#N)(C#N)C1(C#N)C#N	> 100 µM

Item: Brc1ccc(Nc2nc3ccccc3nc2Nc2ccc(Br)cc2)cc1 Test system: SK-MEL-2 melanoma Read-out: TGI Value: ? 5.48 µM

Item: CCc1ccc(Nc2cc(=O)n(C)c(SCc3ccccc3)n2)cc1 Test system: SK-MEL-2 melanoma Read-out: TGI Value: ? > 100 µM

Item: CC(=O)N=c1ccc2nc(N)nn(O)c-2c1 Test system: SK-MEL-2 melanoma Read-out: TGI Value: ? > 100 µM

Item: CCOC(=O)Nc1n[nH]nc1Cl Test system: SK-MEL-2 melanoma Read-out: TGI Value: ? > 100 µM

Item: N#Cc1c2ccccc2c2nnc3ccc(C(F)(F)F)cc3n12 Test system: SK-MEL-2 melanoma Read-out: TGI Value: ? 85.2 µM

The origin of these recorded values is PubChem BioAssay (NCI).
